Test: in vitro
Conditions: human, hek293t cells
# viability at 48 h, 25 µM per entry
Field: numeric (%). Do not append units.

Some entries whose results are on file:
N#CC(=Cc1ccc(OC(F)F)cc1)C(=O)N1CCCC1 [8-L22] = 105
N#CC(=Cc1ccc(Cl)cc1)C(=O)Nc1nccs1 [8-C11] = 79
Cc1cc(C)c(C(=O)CCl)c(C)c1 [10-C08] = 97.8
O=C1C=CC(=O)N1c1ccc2ccccc2c1 [10-D07] = 74.4

Task: // lookup viability at 48 h, 25 µM for CCN(CC)S(=O)(=O)c1cc(NC(=O)CCl)ccc1C [4-E09]
Output: 0.544

Task: Now this one: CC(Cl)C(=O)N1CC(OCc2cccc3ccccc23)C1 (stereo not drawn) [7-I03]
Output: 96.3

Task: Now this one: C=CC(=O)NCc1ccccc1CN1C(=O)NC2(CCCCC2)C1=O [2-O11]
Output: 71

* * *

Experiment: in vitro
Conditions: human, hek293t cells
Cut-off 10% on viability at 48 h, 25 µM: below means 1.0, at or above means 0.0.

Example results:
O=C(CCl)Nc1cccc(OCc2ccccc2)c1 = 1.0
C=CC(=O)N(C)Cc1cc2sccc2n1C = 0.0
N#CC(=Cc1cc(F)ccc1F)C(=O)Nc1ccc2c(c1)OCCO2 = 0.0
N#Cc1ccc(N2C(=O)C=CC2=O)cc1 = 0.0
COc1ccc(C(=O)CCl)cc1Cl = 1.0

Now, please, on to the next compound.
Task: Answer whether the compound COc1ccc(C(NC(=O)CCl)C(C)C)cc1 (stereo not drawn) has viability at 48 h, 25 µM strictly less than 10%
Output: 0.0

* * *

Experiment: in vitro
Settings: human, hek293t cells
Cut-off 90% on viability at 48 h, 25 µM: below means YES, at or above means NO.

N#CC(=Cc1cnn(-c2ccc(Cl)cc2)c1)C(=O)NC1CCCCC1 = YES

Task: Answer whether the molecule "Cc1cc(C=C(C#N)C(=O)Nc2ccncc2)c(C)n1C1CC1" has viability at 48 h, 25 µM strictly less than 90%
Output: YES

Task: Now this one: "C=CC(=O)NCc1nc(C(=O)O)c(C)s1"
Output: YES

Task: Now this one: O=C(CCl)Nc1ccccc1F [4-M16, 2-chloro-N-(2-fluorophenyl)acetamide]
Output: YES

Task: Now this one: "O=C(CCl)Nc1ccc(F)cc1[N+](=O)[O-]"
Output: YES

Task: Now this one: "C=CC(=O)N(C)Cc1ccncc1"
Output: NO

Task: Now this one: CC(Cl)C(=O)NC(C)c1ccc2c(c1)CCCC2 (centres unmarked)
Output: NO

Task: Now this one: "O=C(CCl)Nc1ccnn1Cc1ccccc1Cl"
Output: YES

Task: Now this one: "N#CC(=Cc1ccco1)C(=O)NCc1ccc(-c2cccnc2)cc1"
Output: NO

Task: Now this one: C=CC(=O)NCC1CCN(C)C1=O (centres unmarked)
Output: YES

Task: Now this one: COc1ccccc1NC(=O)c1ccc(NC(=O)C(C)Cl)cc1 (centres unmarked)
Output: YES

* * *

# viability at 48 h, 25 µM per entry
Test: in vitro
Details: human, hek293t cells
Field: numeric (%). Do not append units.

Some entries whose results are on file:
N#CC(=Cc1ccc([N+](=O)[O-])o1)C(=O)NCc1ccco1 = 1.08
O=C(CCl)Nc1ccccc1C(=O)Nc1ccc(Cl)cc1 = 0.0501
COc1cc(Cl)c(C)cc1NC(=O)C(C)Cl (stereo not drawn) = 102

Task: // lookup viability at 48 h, 25 µM for CC(Cl)C(=O)N1CC(Oc2ccc(C#N)cc2)C1 (stereo not drawn)
Output: 97.1

Task: Now this one: "C=CC(=O)NCC1SCCS1"
Output: 87.6

Task: Now this one: CC(Cl)C(=O)Nc1c(Cl)cccc1Cl (stereo not drawn)
Output: 128

Task: Now this one: "C=CC(=O)Nc1cc(C)cc(S(C)(=O)=O)c1"
Output: 94.1

Task: Now this one: "C=CC(=O)N(C)C1CS(=O)(=O)C1"
Output: 86.3

Task: Now this one: CC1CN(Cc2ccccc2)CC(C)N(C(=O)C(C)Cl)C1 (stereo not drawn)
Output: 122

Task: Now this one: "Cc1cc(C(=O)CCl)c(C)n1-c1ccccn1"
Output: 79.6

Task: Now this one: CCC(=O)Nc1ccc(C(=O)CCl)cc1 [10-C03, N-[4-(2-chloroacetyl)phenyl]propanamide]
Output: 74.1

Task: Now this one: "C=CC(=O)NCc1ccnc(N2CCOCC2)c1"
Output: 70.7

Task: Now this one: "N#CC(=Cc1cccc(O)c1)C(=O)Nc1ccccc1C(F)(F)F"
Output: 109

Task: Now this one: COc1ccc(CNC(=O)C(C)Cl)cc1 (stereo not drawn)
Output: 98.5

Task: Now this one: Cc1ccc(C2=NN(C(=O)CCl)C(c3cccs3)C2)o1 (stereo not drawn)
Output: 0.348

Task: Now this one: "Cc1ccc(S(=O)(=O)NC2CN(C(=O)CCl)C2)cc1"
Output: 0.324

Task: Now this one: "Cc1cccc(NC(=O)C(C#N)=Cc2cc(C)n(C3CC3)c2C)c1"
Output: 94.3
